This collection of values is drawn from PubChem BioAssay AID651640.

Provide the recorded CPE inhibition for the entries that follow.
assay: inhibitors of DENV2 cytopathic effect, primary screen, cell-based, plate reader, single concentration (AID 651640); conditions: DENV2-infected cells, cytopathic effect rescue, at 9.99 µM, active compounds read high;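 note: 0% = median of neutral control wells and 100% = median of positive control wells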
The whole screen tested about 350,000 compounds, of which about 6,000 (1.7%) were called active. About 5% were inconclusive and are not listed. The sample holds actives, similar compounds and a random draw of the others, so the mix is not that of the screen.
Give bare numbers, in %.

Study these solved cases before continuing.
mol: C/C=C/c1ccc2c(c1)O[C@@H](CN(C)S(=O)(=O)c1ccc(F)cc1)[C@@H](C)CN([C@H](C)CO)S2(=O)=O
result-units: %
CPE inhibition: 1.09
--
mol: C/C=C/c1cnc2c(c1)C(=O)N([C@@H](C)CO)C[C@@H](C)[C@@H](CN(C)C(=O)c1cnccn1)O2
result-units: %
CPE inhibition: 2.38
--
mol: C[C@H](CO)N1C[C@H](C)[C@H](CN(C)Cc2ccc(C(=O)O)cc2)Oc2ccc(NS(=O)(=O)c3cn(C)cn3)cc2CC1=O
result-units: %
CPE inhibition: -5.77
--
mol: C[C@@H]1CN([C@H](C)CO)S(=O)(=O)c2ccc(-c3ccc(C(=O)N(C)C)cc3)cc2O[C@@H]1CN(C)C(=O)Nc1ccccc1F
result-units: %
CPE inhibition: 2.86
--
mol: COc1ccc(C#Cc2cnc3c(c2)C(=O)N([C@H](C)CO)C[C@@H](C)[C@@H](CN(C)C(=O)CN(C)C)O3)cc1
result-units: %
CPE inhibition: 33.2
--
mol: CN(C)CC(=O)N[C@@H]1CC[C@@H](CCn2cc(C3CC3)nn2)O[C@H]1CO
result-units: %
CPE inhibition: 13.8
--
mol: CO[C@H]1CN(C)C(=O)c2ccc(NC(C)=O)cc2OC[C@H](C)N(CC2CC2)C[C@@H]1C
result-units: %
CPE inhibition: -14.7
--
mol: COc1cccc(NC(=O)N(C)C[C@H]2Oc3cc(/C=C/c4ccccc4)ccc3S(=O)(=O)N([C@H](C)CO)C[C@@H]2C)c1
result-units: %
CPE inhibition: 1.83
--
mol: COc1ccc(C#Cc2cnc3c(c2)C(=O)N([C@H](C)CO)C[C@H](C)[C@@H](CN(C)C)O3)cc1
result-units: %
CPE inhibition: 19.9
--
mol: COc1cccc(NC(=O)N[C@@H]2CC[C@H](CC(=O)Nc3ccccc3)O[C@@H]2CO)c1
result-units: %
CPE inhibition: 3.12

# batch size: 3; output CPE inhibition per entry
1. CO[C@@H]1CN(C)C(=O)c2ccc(NS(C)(=O)=O)cc2OC[C@@H](C)N(C(=O)CC2CC2)C[C@@H]1C
2. COc1cccc(CNC(=O)C[C@H]2CC[C@@H](NC(C)=O)[C@@H](CO)O2)c1
3. C/C=C/c1cnc2c(c1)C(=O)N([C@@H](C)CO)C[C@@H](C)[C@H](CN(C)C(=O)c1cnccn1)O2

Response:
[-2.7, -0.331, -1.7]

# batch size: 3; output CPE inhibition per entry
1. C[C@H](CO)N1C[C@H](C)[C@H](CN(C)Cc2cccc(C(=O)O)c2)Oc2ncc(-c3ccccc3F)cc2C1=O
2. C[C@@H](NC(=O)C[C@@H]1C=C[C@@H](NC(=O)CN2CCOCC2)[C@H](CO)O1)c1ccccc1
3. O=C(Cc1ccncc1)N[C@H]1CC[C@H](CCn2cc(-c3ccccc3F)nn2)O[C@@H]1CO

Response:
[5.26, -6.9, -5]
